Data origin: ChEMBL document CHEMBL1156424

# test-details: Inhibition of TNF-induced NF-kappaB-mediated IL6 promoter expression in mouse L929sA cells by luciferase reporter gene assay
# Type: cell-based
assay-readout: IC50 (µM)
Numbers only here, please. The scale is µM.

CC1=C(CO)C(=O)O[C@@H]([C@@H](C)[C@H]2CC[C@H]3[C@@H]4C[C@H]5O[C@]56[C@@H](O)C=CC(=O)[C@]6(C)[C@H]4CC[C@]23C)C1 | 0.25

Would you mind telling me what IC50 value was observed for CC1=C(CO)C(=O)OC([C@@H](C)C2CCC3C4C(CC[C@@]32C)[C@@]2(C)C(=O)C=CC[C@]2(O)[C@H]2O[C@@H]42)C1 (some centres undefined) ?
90

Would you mind telling me what IC50 value was observed for CC1=C(C)C(=O)O[C@@H]([C@](C)(O)[C@H]2CC[C@H]3[C@@H]4[C@@H]5O[C@@H]5[C@@]5(O)CC=CC(=O)[C@]5(C)[C@H]4CC[C@]23C)C1 [WITHANOLIDE A] ?
50

Would you mind telling me what IC50 value was observed for C=C1C(=O)O[C@@H]2C[C@@H](C)[C@@H]3C=CC(=O)[C@@]3(C)[C@@H](O)[C@H]12 ?
2.5
